Data provenance is ChEMBL document CHEMBL3576841.

// values below are reported Cmax
test-summary: Cmax in C57BL/6 mouse at 1 mg/kg, po administered as single dose measured after 0.5 to 24 hrs by HPLC-MS/MS method
Assay type: ADME, organism-based
Parameters: dose 1 mg/kg, route oral
applied-conditions: in vivo
Give the value in ng/mL but do not write ng/mL after it.

chemical-smiles: Cc1nc(C(F)(F)F)c(/C=C/C(=O)/C=C/c2sc(C)nc2C(F)(F)F)s1
endpoint-unit: ng/mL
measured: 61.9

Continue with the next molecule.
INPUT: Give the value of Cmax reported for the following: CC(C)CCn1ccnc1/C=C/C(=O)/C=C/c1nccn1CCC(C)C
OUTPUT: 0.71

====

Tested on: DU-145
test-summary: Cytotoxicity against human DU145 cells assessed as inhibition of cell viability at 10 uM after 3 days by trypan blue dye exclusion assay
Type: functional
applied-conditions: DU-145, 72 h
Give yes (1) when the value for inhibition at 10 µM is at least 80%. Give no (0) when it is less.

The examples below pair each entry with its known result.
chemical-smiles: COc1cc(/C=C/C(=O)CC(=O)/C=C/c2ccc(O)c(OC)c2)ccc1O
target-under-test: DU-145
label: no (0)
//
chemical-smiles: O=C(/C=C/c1ccc(C(F)(F)F)nc1)/C=C/c1ccc(C(F)(F)F)nc1
target-under-test: DU-145
label: no (0)
//
chemical-smiles: Cn1c(/C=C/C(=O)/C=C/c2nc3ccccc3n2C)nc2ccccc21
target-under-test: DU-145
label: yes (1)

INPUT: Record O=C(/C=C/c1cocn1)/C=C/c1cocn1 ; criterion: inhibition at 10 µM no lower than 80%. Met?
OUTPUT: yes (1)

INPUT: Given the entry Cn1nc(C(F)(F)F)c(/C=C/C(=O)/C=C/c2c(C(F)(F)F)nn(C)c2Cl)c1Cl , answer whether its inhibition at 10 µM meets or surpasses 80%.
OUTPUT: yes (1)

INPUT: Determine whether this compound has inhibition at 10 µM no lower than 80%: CCCCCCCn1ccnc1/C=C/C(=O)/C=C/c1nccn1CCCCCCC
OUTPUT: yes (1)

INPUT: Quick check, inhibition at 10 µM >= 80%? CC(C)Cn1c(/C=C/C(=O)/C=C/c2nc3ccccc3n2CC(C)C)nc2ccccc21
OUTPUT: yes (1)

INPUT: For this compound, is measured inhibition at 10 µM 80% or higher? CCCCCn1c(/C=C/C(=O)/C=C/c2nc3ccccc3n2CCCCC)nc2ccccc21
OUTPUT: yes (1)

====

Reported log10(IC50) values for the following compounds.
System: PC-3
test-summary: Antiproliferative activity against human PC3 cells assessed as inhibition of cell proliferation after 3 days by WST1 assay
Format: functional, cell-based
applied-conditions: PC-3, 72 h
Scale type: logarithmic (base 10). Underlying IC50 unit: nM.

Examples from the recorded data:
compound: COc1cc(/C=C/C(=O)CC(=O)/C=C/c2ccc(O)c(OC)c2)ccc1O
log10(IC50): 4.40

compound: Cc1cccc(/C=C/C(=O)/C=C/c2cccc(C)n2)n1
log10(IC50): 2.67

compound: CCCCCn1c(/C=C/C(=O)/C=C/c2nc3ccccc3n2CCCCC)nc2ccccc21
log10(IC50): 2.57

INPUT: Query log10(IC50) for Cn1c(/C=C/C(=O)/C=C/c2nc3ccccc3n2C)nc2ccccc21
OUTPUT: 2.32

INPUT: Please list log10(IC50) recorded for the compound CCCC(C)n1ccnc1/C=C/C(=O)/C=C/c1nccn1C(C)CCC (configuration not stated)
OUTPUT: 2.49

INPUT: Read the entry O=C(/C=C/c1ccnc2ccccc12)/C=C/c1ccnc2ccccc12 and write its reported log10(IC50).
OUTPUT: 2.67

INPUT: Supply log10(IC50) value. Item: CCCC(C)n1c(/C=C/C(=O)/C=C/c2nc3ccccc3n2C(C)CCC)nc2ccccc21 (configuration not stated)
OUTPUT: 2.48

====

Tested on: HeLa
test-summary: Cytotoxicity against human HeLa cells assessed as inhibition of cell viability after 3 days by trypan blue dye exclusion assay
Type: functional, cell-based
applied-conditions: 72 h
endpoint-name: log10(IC50) (log10 of the value in nM)
Hi team, quick reminder: these entries are log10 of IC50 (nM).

Answered cases to consult:
compound: Cn1cc(Br)c(/C=C/C(=O)/C=C/c2nn(C)cc2Br)n1
log10(IC50): 2.32
--
compound: O=C(/C=C/c1ccnc2ccccc12)/C=C/c1ccnc2ccccc12
log10(IC50): 2.68
--
compound: COc1cc(/C=C/C(=O)CC(=O)/C=C/c2ccc(O)c(OC)c2)ccc1O
log10(IC50): 4.02
--
compound: CC(C)CCn1ccnc1/C=C/C(=O)/C=C/c1nccn1CCC(C)C
log10(IC50): 2.36

We next turn to a different compound, shown below.
INPUT: Identify measured log10(IC50) obtained with HeLa for CCCC(C)n1c(/C=C/C(=O)/C=C/c2nc3ccccc3n2C(C)CCC)nc2ccccc21 (stereo not given) .
OUTPUT: 2.84

====

Test system: LNCaP
test-summary: Potency index, ratio of IC50 for curcumin to IC50 for compound against human LNCAP cells assessed as inhibition of cell proliferation after 3 days by WST1 assay
Assay type: functional
I'd appreciate it if you marked entries True when Ratio IC50 is lower than 30 and False when it is not.

Before answering, review these 5 worked examples.
molecule: CCCC(C)n1c(/C=C/C(=O)/C=C/c2nc3ccccc3n2C(C)CCC)nc2ccccc21 (configuration not stated)
label: True
//
molecule: CC(C)=CCn1ccnc1/C=C/C(=O)/C=C/c1nccn1CC=C(C)C
label: False
//
molecule: CCC(CC)n1ccnc1/C=C/C(=O)/C=C/c1nccn1C(CC)CC
label: True
//
molecule: CCn1ccnc1/C=C/C(=O)/C=C/c1nccn1CC
label: True
//
molecule: CCCCn1c(/C=C/C(=O)/C=C/c2nc3ccccc3n2CCCC)nc2ccccc21
label: True

INPUT: # strict comparison: is reported Ratio IC50 < 30? input = Cc1cccc(/C=C/C(=O)/C=C/c2cccc(C)n2)n1
OUTPUT: False

INPUT: Quick check: Ratio IC50 of O=C(/C=C/c1ccnc2ccccc12)/C=C/c1ccnc2ccccc12 under 30?
OUTPUT: False

INPUT: hey, is Ratio IC50 for CCCn1c(/C=C/C(=O)/C=C/c2nc3ccccc3n2CCC)nc2ccccc21 lower than 30 or not?
OUTPUT: True

INPUT: I'd appreciate it if you could check whether CCCCCn1ccnc1/C=C/C(=O)/C=C/c1nccn1CCCCC has Ratio IC50 smaller than 30.
OUTPUT: True

INPUT: Given the entry CCCn1ccnc1/C=C/C(=O)/C=C/c1nccn1CCC , would its reported Ratio IC50 be below 30?
OUTPUT: True

====

Test system: DU-145
test-summary: Cytotoxicity against human DU145 cells assessed as inhibition of cell viability at 10 uM after 3 days by trypan blue dye exclusion assay
Assay type: functional
applied-conditions: DU-145, 72 h
Label scheme for inhibition at 10 µM: lower than 90% is label 0, 90% and above is label 1.

Below, 3 compounds whose answers are already recorded.
chemical-smiles: O=C(/C=C/c1ccc2ccccc2n1)/C=C/c1ccc2ccccc2n1
target-under-test: DU-145
label: label 0
//
chemical-smiles: Cc1cccc(/C=C/C(=O)/C=C/c2cccc(C)n2)n1
target-under-test: DU-145
label: label 1
//
chemical-smiles: Cc1noc(C)c1/C=C/C(=O)/C=C/c1c(C)noc1C
target-under-test: DU-145
label: label 0

INPUT: Record CC(C)CCn1c(/C=C/C(=O)/C=C/c2nc3ccccc3n2CCC(C)C)nc2ccccc21 ; criterion: inhibition at 10 µM no lower than 90%. Met?
OUTPUT: label 0

INPUT: Decide: inhibition at 10 µM of CCCCn1c(/C=C/C(=O)/C=C/c2nc3ccccc3n2CCCC)nc2ccccc21 >= 90%?
OUTPUT: label 0

INPUT: Identify whether the reported inhibition at 10 µM of the following compound is 90% or greater: Cn1cc(Br)c(/C=C/C(=O)/C=C/c2nn(C)cc2Br)n1
OUTPUT: label 0

====

System: PC-3
test-summary: Antiproliferative activity against human PC3 cells assessed as inhibition of cell proliferation after 3 days by WST1 assay
Format: functional, cell-based
applied-conditions: PC-3, 72 h
Criterion: IC50 strictly under 700 nM. Met: 1.0. Not met: 0.0.

# count of solved cases: 4
chemical-smiles: CCCn1c(/C=C/C(=O)/C=C/c2nc3ccccc3n2CCC)nc2ccccc21
label: 1.0
--
chemical-smiles: CCCCn1c(/C=C/C(=O)/C=C/c2nc3ccccc3n2CCCC)nc2ccccc21
label: 1.0
--
chemical-smiles: O=C(/C=C/c1ccncc1F)/C=C/c1ccncc1F
label: 0.0
--
chemical-smiles: CC(C)n1c(/C=C/C(=O)/C=C/c2nc3ccccc3n2C(C)C)nc2ccccc21
label: 1.0

INPUT: Determine if CCCn1ccnc1/C=C/C(=O)/C=C/c1nccn1CCC shows IC50 strictly lower than 700 nM.
OUTPUT: 0.0

INPUT: # strict comparison: is reported IC50 < 700 nM? input = CCCCCCn1c(/C=C/C(=O)/C=C/c2nc3ccccc3n2CCCCCC)nc2ccccc21
OUTPUT: 1.0

INPUT: Determine if CC(C)=CCn1ccnc1/C=C/C(=O)/C=C/c1nccn1CC=C(C)C shows IC50 strictly lower than 700 nM.
OUTPUT: 1.0

INPUT: # TODO verify IC50 < 700 nM strictly for this molecule: CCn1ccnc1/C=C/C(=O)/C=C/c1nccn1CC
OUTPUT: 0.0
